EXPERIMENT: chemical genetic growth profiling, strain panel (AID 1159580);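 also: tested at 20 µM; growth read once vehicle control cultures reached saturation at 30 °C; 1 = growth at the plate median or of vehicle wells; lower values mean less growth of the strain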
ASSAY CONTEXT: S. cerevisiae deletion strains, growth OD, locus YNL271C, strain bni1
Out of some 5,500 compounds screened, about 2,000 (36%) were called active. Inconclusive results (about 18%) are left out. Rule as the data show it: active = normalized growth mostly below about 0.91 (no sharp cut-off); inconclusive = no clear call, values can overlap the other calls; inactive = mostly above about 0.92. Some of the results follow.
One label from this list, please: yes (1) = active, no (0) = inactive

[
  {
    "COMPOUND": "CC(=O)N1CCN(c2ccc(OCC3CO[C@](Cn4ccnc4)(c4ccc(Cl)cc4Cl)O3)cc2)CC1 (some centres undefined)",
    "ASSIGNED CATEGORY": "yes (1)"
  },
  {
    "COMPOUND": "O=C(CCCN1CCC2(CC1)C(=O)NCN2c1ccccc1)c1ccc(F)cc1",
    "ASSIGNED CATEGORY": "no (0)"
  },
  {
    "COMPOUND": "CNC[C@H](O)c1cccc(O)c1",
    "ASSIGNED CATEGORY": "no (0)"
  }
]

INPUT: Could you kindly confirm the outcome this assay logged for COC(=O)C[C@H]1C(C)(C)[C@@H](O)[C@@H]2CC3=C4CC(O)O[C@@H](c5ccoc5)[C@]4(C)CCC3[C@@]1(C)C2=O (some centres undefined) ?
OUTPUT: no (0)

INPUT: Could you kindly confirm the outcome this assay logged for CC(=O)[C@@]1(O)CCC2C3C=C(Cl)C4=CC(=O)[C@@H]5CC5[C@]4(C)C3CC[C@@]21C (some centres undefined) ?
OUTPUT: no (0)

INPUT: Could you kindly confirm the outcome this assay logged for C[C@@H]1CC[C@@]23CCC4(C)[C@@](C=CC5[C@@]6(C)CC[C@H](O)C(C)(C)C6CC[C@]54C)(OC2=O)C3[C@H]1C (some centres undefined) ?
OUTPUT: no (0)

INPUT: Could you kindly confirm the outcome this assay logged for CCC(=O)OCC(=O)[C@@]1(OC(=O)CC)[C@@H](C)CC2C3CCC4=CC(=O)C=C[C@]4(C)C3(F)[C@@H](O)C[C@@]21C (some centres undefined) ?
OUTPUT: no (0)

INPUT: Could you kindly confirm the outcome this assay logged for "COc1ccc(-c2cc(=O)c3c(O)c(OC)c(O[C@H]4O[C@H](CO[C@@H]5O[C@@H](C)[C@H](O)[C@@H](O)[C@H]5O)[C@@H](O)[C@H](O)[C@H]4O)cc3o2)cc1" ?
OUTPUT: no (0)

INPUT: Could you kindly confirm the outcome this assay logged for C[C@@H]1CC[C@@]23CCC4(C)[C@@](C=CC5[C@@]6(C)CCC(=O)C(C)(C)C6CC[C@]54C)(OC2=O)C3[C@H]1C (some centres undefined) ?
OUTPUT: no (0)

INPUT: Could you kindly confirm the outcome this assay logged for "CN(C)CC[C@H](c1ccc(Cl)cc1)c1ccccn1" ?
OUTPUT: no (0)

INPUT: Could you kindly confirm the outcome this assay logged for "COc1ccc(-c2cc(=O)c3c(O)c(OC)c(OC)cc3o2)cc1O" ?
OUTPUT: no (0)

INPUT: Could you kindly confirm the outcome this assay logged for CCCCC(=O)O[C@]1(C(=O)CO)[C@@H](C)CC2C3CCC4=CC(=O)C=C[C@]4(C)[C@@]3(F)C(O)C[C@@]21C (some centres undefined) ?
OUTPUT: no (0)

INPUT: Could you kindly confirm the outcome this assay logged for "CC(=O)O[C@@H]1c2c(ccc3ccc(=O)oc23)OC(C)(C)[C@@H]1OC(=O)CC(C)C" ?
OUTPUT: no (0)

INPUT: Could you kindly confirm the outcome this assay logged for "COc1cc(O)c2c(=O)cc(-c3ccc(O)cc3)oc2c1" ?
OUTPUT: no (0)
